target: Ectonucleotide pyrophosphatase/phosphodiesterase family member 1 (Homo sapiens); experiment: Mixed type inhibition of human NPP1 expressed in COS7 cells assessed as production of p-nitrophenol using pnp-TMP as the substrate preincubated for 3 mins before substrate addition measured after 15 mins by Dixon/Cornish Bowden method; conditions: read-out: Ki(app)
Sequence (P22413 whole entry): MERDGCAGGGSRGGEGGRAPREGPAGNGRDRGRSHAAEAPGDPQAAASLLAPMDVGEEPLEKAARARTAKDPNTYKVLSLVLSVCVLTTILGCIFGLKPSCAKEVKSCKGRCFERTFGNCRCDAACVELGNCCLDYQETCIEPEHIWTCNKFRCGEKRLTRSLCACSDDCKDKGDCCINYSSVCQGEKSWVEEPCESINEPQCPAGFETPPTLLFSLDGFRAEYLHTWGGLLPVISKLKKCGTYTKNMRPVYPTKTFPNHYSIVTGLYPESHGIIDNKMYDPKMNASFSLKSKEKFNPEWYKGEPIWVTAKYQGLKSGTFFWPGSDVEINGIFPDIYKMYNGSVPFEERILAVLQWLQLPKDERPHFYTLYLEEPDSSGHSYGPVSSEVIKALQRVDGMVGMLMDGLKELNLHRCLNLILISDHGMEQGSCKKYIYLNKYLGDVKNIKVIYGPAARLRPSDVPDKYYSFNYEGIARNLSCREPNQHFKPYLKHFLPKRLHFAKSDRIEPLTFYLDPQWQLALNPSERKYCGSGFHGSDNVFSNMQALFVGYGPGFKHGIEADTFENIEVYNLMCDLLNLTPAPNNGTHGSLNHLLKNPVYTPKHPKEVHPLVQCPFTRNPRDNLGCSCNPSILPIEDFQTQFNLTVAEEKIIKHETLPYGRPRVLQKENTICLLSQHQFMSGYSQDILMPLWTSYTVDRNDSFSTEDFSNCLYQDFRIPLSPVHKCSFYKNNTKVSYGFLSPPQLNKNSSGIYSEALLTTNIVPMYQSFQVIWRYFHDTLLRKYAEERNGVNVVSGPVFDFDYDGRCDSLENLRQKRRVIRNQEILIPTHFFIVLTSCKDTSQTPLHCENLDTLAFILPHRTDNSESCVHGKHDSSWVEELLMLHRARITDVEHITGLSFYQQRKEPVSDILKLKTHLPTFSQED
READOUT: Ki (µM)

B[P@](=O)(OC[C@H]1O[C@@H](n2cnc3c(N)ncnc32)[C@H](O)[C@@H]1O)OP(=O)(O)C(Cl)(Cl)P(=O)(O)O ... 28
CSc1nc(N)c2ncn([C@@H]3O[C@H](COP(=O)(O)OP(=O)(O)C(F)(F)P(=O)(O)O)[C@@H](O)[C@H]3O)c2n1 ... 37
B[P@](=O)(OC[C@H]1O[C@@H](n2cnc3c(N)nc(SC)nc32)[C@H](O)[C@@H]1O)OP(=O)(O)CP(=O)(O)O ... 56

[P] CSc1nc(N)c2ncn([C@@H]3O[C@H](COP(=O)(O)C(F)(F)P(=O)(O)O)[C@@H](O)[C@H]3O)c2n1
[Q] B[P@](=O)(OC[C@H]1O[C@@H](n2cnc3c(N)ncnc32)[C@H](O)[C@@H]1O)OP(=O)(O)CP(=O)(O)O
Task for the reader: decide whether P or Q has the larger Ki. Answer format: the label of the selected item.
P

[A] B[P@@](=O)(OC[C@H]1O[C@@H](n2cnc3c(N)ncnc32)[C@H](O)[C@@H]1O)OP(=O)(O)CP(=O)(O)O
[B] B[P@@](=O)(OC[C@H]1O[C@@H](n2cnc3c(N)ncnc32)[C@H](O)[C@@H]1O)OP(=O)(O)C(Cl)(Cl)P(=O)(O)O
Exercise: compare A and B ; which one has the greater Ki? Write down the label attached to your selection.
B
